Experiment: Single dose oral pharmacokinetic study
Assay type: in vivo
Conditions: mouse; Mice oral PK @30 mg/kg; plasma; vehicle 10% Solutol+20% PEG; read-out: AUC0-t
This section presents molecules with their documented AUC(0-t) values.
Numbers only here, please. The scale is µg·h/mL.

molecule: Cc1ccc(C(=O)NC(C)(C)C(=O)N[C@@]23CC[C@]4(C)[C@H](CC[C@@H]5[C@@]6(C)CC[C@H](OC(=O)[C@H]7C[C@@H](C(=O)O)C7(C)C)C(C)(C)[C@@H]6CC[C@]54C)C2=C(C(C)C)C(=O)C3)cc1 [Example 23]
valueType: AUC(0-t)
observedMeasurement: 590
//
molecule: Cc1ccc(NC(=O)NC(C)(C)C(=O)N[C@@]23CC[C@]4(C)[C@H](CC[C@@H]5[C@@]6(C)CC[C@H](OC(=O)[C@H]7C[C@@H](C(=O)O)C7(C)C)C(C)(C)[C@@H]6CC[C@]54C)C2=C(C(C)C)C(=O)C3)cn1 [Example 71]
valueType: AUC(0-t)
observedMeasurement: 130
//
molecule: CC(C)C1=C2[C@H]3CC[C@@H]4[C@@]5(C)CC[C@H](OC(=O)[C@H]6C[C@@H](C(=O)O)C6(C)C)C(C)(C)[C@@H]5CC[C@@]4(C)[C@]3(C)CC[C@@]2(NC(=O)C(C)(C)NC(=O)CN(C)C)CC1=O [Example 59]
valueType: AUC(0-t)
observedMeasurement: 186

// returns reported AUC(0-t) for input CC(C)C1=C2[C@H]3CC[C@@H]4[C@@]5(C)CC[C@H](OC(=O)[C@H]6C[C@@H](C(=O)O)C6(C)C)C(C)(C)[C@@H]5CC[C@@]4(C)[C@]3(C)CC[C@@]2(NC(=O)C(C)(C)NC(=O)c2ccccc2)CC1=O [Example 3]
545
